Tested on: SEM cells
test summary: cell viability relative to DMSO control; higher = less cytotoxic
condition parameters: HPLM + 10% dialyzed FBS; 48 h; 1.71 µM
Assignment: determine reported cell viability for the given compounds.
Numbers only, in %.

Answered examples (2):
COc1ccc(Cc2ccc(NC(N)=O)cc2)cc1-c1cccc(Cl)c1
119
CC(=O)N(C)c1cccc(-c2ccnc3c(C(=O)c4cccs4)cnn23)c1
103

Please find the next compound below.
Query: Item Nc1ccccc1NC(=O)c1ccc(CNC(=O)OCc2cccnc2)cc1 has what recorded cell viability?
Response: 21.2

* * *

Assignment: determine reported cell viability for the given molecules.
Test system: SEM cells
test summary: cell viability relative to DMSO control; higher = less cytotoxic
condition parameters: HPLM + 10% dialyzed FBS; 48 h; 0.0211 µM
Give bare numbers, in %.

CN1[C@@H]2CC[C@H]1CC(OC(=O)c1c[nH]c3ccccc13)C2 (stereo partly drawn)
25.9
Oc1ccc2c3c1O[C@H]1c4[nH]c5c(c4C[C@@]4(O)[C@@H](C2)N(CC2CC2)CC[C@]314)C[C@@]1(O)[C@H]2Cc3ccc(O)c4c3[C@@]1(CCN2CC1CC1)[C@H]5O4
92.6
CCC1(C)CC(=O)NC1=O (stereo not drawn)
112
COc1c(C)cnc(Cn2cnc3c(Cl)nc(N)nc32)c1C
112
Cn1cc(/C=C/C(=O)c2cccc(F)c2)cc1/C=C/C(=O)NO
129
CCCCn1c(=O)n(Cc2ccccc2F)c(=O)c2nc(Cc3ccc(NC(C)=O)cc3)[nH]c21
109
CC(=O)Nc1ccc(OC[C@](C)(O)C(=O)Nc2ccc([N+](=O)[O-])c(C(F)(F)F)c2)cc1
75.9
C[C@]12CC[C@@H]3c4ccc(OC(=O)N(CCCl)CCCl)cc4CC[C@H]3[C@@H]1CC[C@@H]2OP(=O)([O-])[O-].[Na+].[Na+]
109

Give me cell viability for each of these molecules, listed below.
1. CC[C@H](CC#N)OC(=O)N[C@@H](C)c1cccc(NC(=O)Nc2ccc(-c3cnco3)c(OC)c2)c1
2. CC1=CC=CC=C1N2\C(=N/C3=C(C(=CC=C3)C)C2=O)C[N]4C=NC5=C4N=CN=C5N
3. CC\1=C(C(\N=C(/N1)C2=CC(=NC=C2)Cl)C3=C(F)C=C(Cl)C=C3)/C(=O)NC4=C(F)C=C5[NH]N=CC5=C4 (stereo not drawn)
4. CNC1CCC(N(Cc2cccc(-c3ccncc3)c2)C(=O)c2sc3ccccc3c2Cl)CC1 (stereo not drawn)
5. NC1(Cc2ccc(Cl)cc2)CCN(c2ncnc3[nH]ccc23)CC1

Response:
119
92.6
94.9
90.6
100
